We begin with a simple list: items and their reported melting point.

Quick one: melting point for O=C(CSc1cnn[nH]1)NCc1ccc(OC(F)(F)F)cc1 ?
131 to 133 °C

Please do the same for CCOC(=O)c1cnc(NC(=O)CSc2c[nH]nn2)s1 as well.
172 to 174 °C

Please do the same for O=C(CSc1c[nH]nn1)Nc1ccccc1C(F)(F)F as well.
83 to 85 °C

Please do the same for O=C(CSc1c[nH]nn1)NC1CCCC1 as well.
108 to 109 °C

Please do the same for CCN(C(=O)CSc1c[nH]nn1)c1ccccc1F as well.
82 to 83 °C

* * *

measure: melting point

Examples with answers:
O=C(CSc1cnn[nH]1)NCc1cc(F)cc(C(F)(F)F)c1 [Compound 42]    82 to 84 °C
O=C(CSc1c[nH]nn1)Nc1ccc(C(F)(F)F)cc1 [Compound 22]    163 to 165 °C
O=C(CSc1nncs1)Nc1ccccc1 [Compound 63]    109 to 110 °C
Cc1nnc(SCC(=O)Nc2ccccc2F)s1 [Compound 67]    111 to 113 °C
N#Cc1cccnc1NC(=O)CSc1c[nH]nn1 [Compound 12]    113 to 114 °C

# next compound below
Quick one: melting point for O=C(CSc1cnn[nH]1)NCc1cccc(F)c1 [Compound 41] ?
85 to 86 °C
